# Tested on: MS2 coat protein
# assayOverview: apparent Kd, MS2 coat protein; higher = weaker binding; RNA-MaP array; FMN 200 µM where present
# measurementParameters: ligand present: flavin mononucleotide; designed as: OFF switch for flavin mononucleotide
Catalogue of apparent Kd readings, one per entry.

See these solved cases before continuing.
1) GGUACUCAAAGAGUACCAAUACGAACAUGAGGAUCACCCAUGUAGGAUAUGCAAAAGCCGGAGUAGCAGAAGGACAUGUGCCUA    46.4 nM
2) CUAUGGGCAGGAUAUGCAUAUCGGGAGUGGUCGCAAGCGUUACAUGAGGAUCACCCAUGUAGAAGGGCCGCGUC    20.4 nM
3) GGACCGUGCAGAGUUGGCGGUCGGCAGGAUAUGACAUGAGGAUCACCCAUGUGAACUCCAUUGGGUCAGAAGGGCCACGACACA    78 nM
4) CUUGCGCGCUCGCCACUUUUCCCACAUGAGGAUCACCCAUGUCAGGAUAUACGUACCGAAAUGGCGUAGAAGGGACACGGGUUA    131 nM
5) AGGAGGUCAGGAUAUGCUGCUCGUCACUUGCGUGAUGAGUAGCAGAAGGGACAUGAGGAUCACCCAUGUAAAAA    88.7 nM

**Query** Identify the measured apparent Kd of `CUAGCAACAUGAGGAUCACCCAUGUAGGAUAUCGCUAUUGUAAUCAUGAAACAUGAUUACAAUAGCGAGAAGGACAUAUGCUAA` for MS2 coat protein.
**Result** 10.8 nM

**Query** Identify the measured apparent Kd of `GUUUACGCGGAAGGAUAUACAUUUGACAUCUUGAUGCGCGCAAUACUCACAUGAGGAUCACCCAUGUAGAAGGUCUGCGAAAGA` for MS2 coat protein.
**Result** 24.9 nM

**Query** Identify the measured apparent Kd of `AAACCGCUAGGAUAUACGAAAUAAAACUCUGUACUUGAGGUACAUGAGGAUCACCCAUGUAGAAGGAGCUCGGA` for MS2 coat protein.
**Result** 229 nM

**Query** Identify the measured apparent Kd of `UGAGUGUGAGGAUAUAUGGUAGGGAUGAAGGGAUAGAAUUAGUAGAAGGUACAUGAGGAUCACCCAUGUUAGGA` for MS2 coat protein.
**Result** 21.9 nM

**Query** Identify the measured apparent Kd of `CUAGCCCAGCCCGCCUAGUUCGGGAGAAGGAGGAGACAUGAGGAUCACCCAUGUGGCCUUAUCUCCUAGGAUAUCCCGGCGGGA` for MS2 coat protein.
**Result** 21.6 nM

**Query** Identify the measured apparent Kd of `AAGAAGUCAGGAUAUGCAUGGCGGGACUUGCGUCGUGGCGUGCAGAAGGGACAUGAGGAUCACCCAUGUAAAGU` for MS2 coat protein.
**Result** 45.4 nM

**Query** Identify the measured apparent Kd of `UAUGUAUUCGUAGGAUAUCCGUUGAGACCGUGUGGAGAAGGACGAACAUGAGGAUCACCCAUGUGUCAUGGUGUAGACAAUUUU` for MS2 coat protein.
**Result** 220 nM

* * *

Catalogue of apparent Kd readings, one per entry.
# Tested on: MS2 coat protein
# assayOverview: apparent Kd, MS2 coat protein; higher = weaker binding; RNA-MaP array; tryptophan 2.4 mM where present
# measurementParameters: designed as: OFF switch for tryptophan; no ligand
Supply the numeric figure in nM, leaving out any unit text.

1) GAGUAGAGGACGGCCGCCACUGAACAUGAGGAUCACCCAUGUCGUGAUCCGUUACCUAAAGAAGAUAGGACCGGGUCAUGUACUC    27.3
2) AACAUGAGGAUCACCCAUGUGUCCUCGAAACGAGGACCGGUACGGCCGCCACUCGAAGCAUGUUGACGAAAAGUCAGCAUGCAAA    318
3) GAGCUCGUGGACUGGCGUGCUCCGCUCCGUCGAGGACCGGUACGGCCGCCACUCGACAUGAGGAUCACCCAUGUGUGAGCUCGCG    62.5

Kindly consider the entry below.
**Query** Fill in: apparent Kd of `UAUUAUCAGUCGGCCGCCACUGACACAUGAGGAUCACCCAUGUAAUUUGGGUUAUAUAGAAAAUACAGGACCGGGACUAAGGCUA` is ___
**Result** 260

* * *

# Tested on: MS2 coat protein
# assayOverview: apparent Kd, MS2 coat protein; higher = weaker binding; RNA-MaP array
# measurementParameters: designed as: ON switch for flavin mononucleotide; no ligand
propertyMeasured: apparent Kd (nM)
Supply the numeric figure in nM, leaving out any unit text.

1. GUAAACGCCACAGGAUAUUGGCAGAAUAAGGAGCAAGAAGGGUGGGAUAGAAUCACGUGAACAUGAGGAUCACCCAUGUGUGGA    55.3
2. CUUGUACAUGAGGAUCACCCAUGUGUCCGUAUCAAAGGAUAUAGCAUAUUCGCAGUGGUGCUAGAAGGUUGUAUAC    20.9
3. UAGCGACAUGAGGAUCACCCAUGUCCCGGCUACUAAGGAUAUGCAGUGAUUGAAAGGAAGGCAGAAGGUAGUGCAG    25.3

**Query** Fill in: apparent Kd of `UCGAGUGGGCAGAAGGUGUCGGACUAUACAUGAGGAUCACCCAUGUGGAAACCUCCCGGUUUGAACAAGGAUAUGCCUCGUAAA` is ___
**Result** 95.6

* * *

Catalogue of apparent Kd readings, one per entry.
# System: MS2 coat protein
# assayOverview: apparent Kd, MS2 coat protein; higher = weaker binding; RNA-MaP array; FMN 200 µM where present
# measurementParameters: designed as: ON switch for flavin mononucleotide; no ligand
Supply the numeric figure in nM, leaving out any unit text.

See these solved cases before continuing.
1. ACAUGAGGAUCACCCAUGUUAAACGAGGAUAUUUGACUGCACAUGAGGUUCGCCCAUGUCCUGCCGAAGAAGGUGUGAAUAAUU    17.6
2. CGAGACCUCACAGGAUAUGCUGGACUUUGUCCAGCAGAAGGGUGAAAACAUGAGGAUCACCCAUGUAUGGUCUCCAAAUUUAAU    176
3. GUGGGACAUGAGGAUCACCCAUGUGGGAGGGAACGAGGAUAUGUGAGGAGCGAGAAGUGAACAGAAGGCGUGGUUG    82.8

Kindly consider the entry below.
**Query** Fill in: apparent Kd of `GGAGGACAUGAGGAUCACCCAUGUGGAUGAACGCUAGGAUAUGCGUGCAGGAAGAGUGGAGCAGAAGGAGUGGGAU` is ___
**Result** 26.4

* * *

# Tested on: MS2 coat protein
# assayOverview: apparent Kd, MS2 coat protein; higher = weaker binding; RNA-MaP array; FMN 200 µM where present
# measurementParameters: ligand present: flavin mononucleotide; designed as: OFF switch for flavin mononucleotide
propertyMeasured: apparent Kd

See these solved cases before continuing.
1. GGAUGCAAGGAGAAGGGCUACUGGUUGAAACCUGCGGCCUCUGGAACAUGAGGAUCACCCAUGUAGCAGGAUAUCCUUACGUGA    32.8 nM
2. CUGCUGGAGCUUUGCUUUAGUCGUACAUGAGGAUCACCCAUGUAGGAUAUGGUGGGCUUUGCUUACUAGAAGGAUAGAGUGGUC    36.3 nM

**Query** Fill in: apparent Kd of `UUUUAACAUGAGGAUCACCCAUGUGAGGAUAUCGAAAUUUUUAUUAAUAUUAAUAAAACGAGAAGGCACAUUUU` is ___
**Result** 69.3 nM

**Query** Fill in: apparent Kd of `CUAUUCCGAGGAUAUACAUGAGGAUCACCCAUGUCGGGCCUCUGCGUUUAGCGCGUAAGUAGAAGGUGGGUUUC` is ___
**Result** 32.9 nM

**Query** Fill in: apparent Kd of `GUAAUGUGAGGAUAUGGUAAAGAUAAGAUGAUGAAAGAACUCCAGAAGGCACAUGAGGAUCACCCAUGUAGAUG` is ___
**Result** 107 nM

**Query** Fill in: apparent Kd of `AAAAAACAUGAGGAUCACCCAUGUGAGGAUAUCUGAAAAAAAAAAAAAAAAAAGAAAAAGAGAAGGCGCAAAGA` is ___
**Result** 65.2 nM

**Query** Fill in: apparent Kd of `GCCGGUUCCCUAGGAUAUGUACAUGAGGAUCACCCAUGUGCUUCUAGAGCCGGAGCAGGGCAUGUACAGAAGGAGGGUCGACCC` is ___
**Result** 7.39 nM

**Query** Fill in: apparent Kd of `UAAAUACAUGAGGAUCACCCAUGUGAGGAUAUCCGAUGAUUCGGAGAAAGGACCCGUUGGAGAAGGCAUAGGGC` is ___
**Result** 21 nM

**Query** Fill in: apparent Kd of `CUGACGUCAGGAUAUCUGAUGUCUAACUUCGGUUAGACAUCAGAGAAGGGACAUGAGGAUCACCCAUGUCAGAA` is ___
**Result** 20.8 nM

Source: the EternaBench riboswitch data
